The reported measurements were obtained from patent US9682976B2.

System: PKC mediated IL-2 production
Assay: IL-2 ELISA, human primary T cell, anti CD3+CD28+
Assay type: cell-based
Conditions: Homo sapiens, T-cell, 24 h, human primary T cells stimulated with αCD3 and αCD28, 24 hours
property: EC50

| molecule | measured_value |
| --- | --- |
| CC1(C)C[C@H](Nc2nc(Nc3cc(C#N)c(C4CC4)cc3F)ncc2Cl)C[C@@H]2CCCN21 | 0.1 to 0.5 µM |
| CC1(C)C[C@H](Nc2nc(Nc3cc(-n4cnnn4)c(C4CC4)cc3F)ncc2Cl)C[C@@H]2CCCN21 | < 0.1 µM |
| Cn1nnn(-c2cc(Nc3ncc(F)c(N[C@@H]4C[C@@H]5C[C@H](F)CN5C(C)(C)C4)n3)c(F)cc2C2CC2)c1=O | 0.1 to 0.5 µM |
| CC1(C)C[C@H](Nc2nc(Nc3ccc(OC4CCNCC4)c(OC(F)F)c3)ncc2F)C[C@@H]2CCCN21 | 0.1 to 0.5 µM |
| CC1(C)C[C@H](Nc2nc(Nc3ccc(OC4CCNCC4)c(C(F)(F)F)c3)ncc2F)C[C@@H]2CCCN21 | 0.1 to 0.5 µM |
| CC1(C)CC[C@H]2C[C@@H](Nc3nc(Nc4ccc(OC5CC(O)C5)c(C(F)(F)F)c4)ncc3F)CCN21 (stereo partly shown) | 0.1 to 0.5 µM |
| CC(C)OC(=O)COc1cc(F)c(Nc2ncc(F)c(N[C@@H]3C[C@@H]4CCCN4C(C)(C)C3)n2)cc1-n1nnn(C)c1=O | 1 to 10 µM |

----------
System: PKC mediated IL-2 production
Experiment: IL-2 ELISA, human primary T cell, anti CD3+CD28+
Assay type: cell-based
Conditions: Homo sapiens, T-cell, 24 h, human primary T cells stimulated with αCD3 and αCD28, 24 hours

| compound | EC50 |
| --- | --- |
| CC1(C)C[C@H](Nc2nc(Nc3cc(-n4nnnc4C4CC4)c(O)cc3F)ncc2F)C[C@@H]2CCCN21 | 1000 to 10000 nM |
| Cn1nc2n(c1=O)-c1cc(Nc3ncc(F)c(N[C@@H]4C[C@@H]5CCCN5C(C)(C)C4)n3)ccc1OC2(C)C | 100 to 500 nM |
| Cn1nnn(-c2cc(Nc3ncc(F)c(N[C@@H]4C[C@@H]5CCCN5C(C)(C)C4)n3)c(F)cc2OCC2CCO2)c1=O (some centres unmarked) | 100 to 500 nM |
| COCCOCCOc1ccc(Nc2ncc(F)c(N[C@@H]3C[C@@H]4CCCN4C(C)(C)C3)n2)cc1C#N | 100 to 500 nM |
| CN1C(=O)C(C)(C)Oc2ccc(Nc3ncc(F)c(N[C@@H]4C[C@@H]5CCCN5C(C)(C)C4)n3)cc21 | 500 to 1000 nM |
| CN(C)CCOc1cc(F)c(N(CCN(C)C)c2ncc(F)c(N[C@@H]3C[C@@H]4CCCN4C(C)(C)C3)n2)cc1-n1nnn(C)c1=O | 100 to 500 nM |
| CC1(C)CC[C@H]2C[C@@H](Nc3nc(Nc4ccc(OC5COC5)c(OC(F)F)c4)ncc3F)CCN21 | 100 to 500 nM |
| COCCOc1ccc(Nc2ncc(F)c(N[C@@H]3C[C@@H]4CCCN4C(C)(C)C3)n2)cc1-n1cnnn1 | < 100 nM |
| Cn1nnn(-c2cc(Nc3ncc(C#N)c(N[C@@H]4C[C@@H]5CCCN5C(C)(C)C4)n3)c(F)cc2OC2CCOCC2)c1=O | 500 to 1000 nM |
| CC(O)COc1ccc(Nc2ncc(Cl)c(N[C@@H]3C[C@@H]4CCCN4C(C)(C)C3)n2)cc1C#N (some centres unmarked) | 1000 to 10000 nM |
| CC1(C)CC(Nc2nc(Nc3cc(-n4cnnn4)c(C4CC4)cc3F)ncc2F)CC2CCCN21 (single isomer, unassigned) | < 100 nM |
| COc1cc(Nc2ncc(F)c(N[C@@H]3C[C@@H]4CCCN4C(C)(C)C3)n2)ccc1O | 1000 to 10000 nM |
| Cc1nnnn1-c1cc(Nc2ncc(F)c(N[C@@H]3C[C@@H]4CCCN4C(C)(C)C3)n2)ccc1F | < 100 nM |
| Cc1ccc(Nc2ncc(F)c(N[C@@H]3C[C@@H]4CCCN4C(C)(C)C3)n2)cc1-n1nnn(CC(C)(C)O)c1=O | < 100 nM |

----------
Tested on: PKC mediated IL-2 production
Assay: IL-2 ELISA, human primary T cell, anti CD3+CD28+
Format: cell-based
Details: Homo sapiens, T-cell, 24 h, human primary T cells stimulated with αCD3 and αCD28, 24 hours
Protocol: Compounds 1-328 were tested in a whole cell functional assay for PKC mediated IL-2 production as follows. Human primary T cell isolation and culture: Human primary T cells were prepared as follows. Whole blood was obtained from a healthy volunteer, mixed 1:1 with PBS, layered on to Ficoll Hypaque (Amersham Pharmacia Biotech, Piscataway, N.J., Catalog #17-1440-03) in 2:1 blood/PBS:ficoll ratio and centrifuged for 30 minutes at 4° C. at 1750 rpm. […]
Catalogue of EC50 readings, one per entry.
property: EC50

| molecule | measured_value |
| --- | --- |
| Cn1nnn(-c2cc(Nc3ncc(F)c(N[C@@H]4C[C@@H]5CCCN5C(C)(C)C4)n3)c(F)cc2Br)c1=O | < 100 nM |
| Cc1ccc(Nc2ncc(F)c(N[C@@H]3C[C@@H]4CCCN4C(C)(C)C3)n2)cc1-n1nnn(C)c1=O | < 100 nM |
| CO[C@@H](C)COc1cc(F)c(Nc2ncc(Cl)c(N[C@@H]3C[C@@H]4CCCN4C(C)(C)C3)n2)cc1-n1nnn(C)c1=O | 500 to 1000 nM |
| CCOC(=O)C(C)Oc1cc(F)c(Nc2ncc(F)c(N[C@@H]3C[C@@H]4CCCN4C(C)(C)C3)n2)cc1-n1nnn(C)c1=O (stereo partly drawn) | 100 to 500 nM |
| CC(=O)O[C@H]1[C@H](OC(C)=O)C(Oc2cc(F)c(Nc3ncc(F)c(N[C@@H]4C[C@@H]5CCCN5C(C)(C)C4)n3)cc2-n2nnn(C)c2=O)OC[C@H]1OC(C)=O (stereo partly drawn) | 1000 to 10000 nM |
| CC1(C)CC[C@H]2C[C@@H](Nc3nc(Nc4ccc(N5CCOCC5)c(OC(F)F)c4)ncc3F)CCN21 | 100 to 500 nM |

----------
Tested on: PKC mediated IL-2 production
Test: IL-2 ELISA, human primary T cell, anti CD3+CD28+
Format: cell-based
Conditions: Homo sapiens, T-cell, 24 h, human primary T cells stimulated with αCD3 and αCD28, 24 hours
EC50 reference

| compound | EC50 |
| --- | --- |
| CN1CCN(c2ccc(Nc3ncc(F)c(N[C@@H]4C[C@@H]5CCCN5C(C)(C)C4)n3)cc2C#N)CC1 | < 100 nM |
| CC1(C)C[C@H](Nc2nc(Nc3ccc(O)c(C#N)c3)ncc2F)C[C@@H]2CCCN21 | 1000 to 10000 nM |
| CC1(C)CC[C@H]2C[C@@H](Nc3nc(Nc4cc(-n5nnnc5C5COC5)c(C5CC5)cc4F)ncc3F)CCN21 | < 100 nM |
| Cn1nc2n(c1=O)-c1cc(Nc3ncc(F)c(N[C@@H]4C[C@@H]5CCCN5C(C)(C)C4)n3)ccc1OCC2(C)O (some centres unmarked) | 500 to 1000 nM |
| CC1(C)C[C@H](Nc2nc(Nc3cc(-n4cnnn4)c(C4CC4)cc3F)ncc2F)C[C@@H]2CCCN21 (racemic) | < 100 nM |
| CC1(C)Oc2ccc(Nc3ncc(F)c(N[C@@H]4C[C@@H]5CCCN5C(C)(C)C4)n3)cc2-n2c1nn(CCO)c2=O | 1000 to 10000 nM |
| COc1cc(-n2nnnc2C)c(F)c(Nc2ncc(F)c(N[C@@H]3C[C@@H]4CCCN4C(C)(C)C3)n2)c1F | 500 to 1000 nM |
| COc1cc(Nc2ncc(F)c(N[C@@H]3C[C@@H]4CCCN4C(C)(C)C3)n2)c(F)c(-n2nnnc2C)c1 | 100 to 500 nM |
| CC1(C)C[C@H](Nc2nc(Nc3ccc(C4CC4)c(C#N)c3)ncc2Cl)C[C@@H]2CCCN21 | < 100 nM |
| CC1(C)C[C@H](Nc2nc(Nc3ccc(OCC(O)CO)c(C#N)c3)ncc2F)C[C@@H]2CCCN21 (some centres unmarked) | 1000 to 10000 nM |
| COc1ccc(Nc2ncc(Cl)c(N[C@@H]3C[C@@H]4CCCN4C(C)(C)C3)n2)cc1-n1nnnc1C | < 100 nM |
| Cn1nnn(-c2cc(Nc3ncc(F)c(NC4CC5CCCN5C(C)(C)C4)n3)ccc2OC2COC2)c1=O (single isomer, unassigned) [Compound 39] | 100 to 500 nM |
| CC1(C)C[C@H](Nc2nc(Nc3ccc(N4CCC5(CC4)COC5)c(C#N)c3)ncc2F)C[C@@H]2CCCN21 | 100 to 500 nM |
| CC1(C)CC(Nc2nc(Nc3ccc(OC4COC4)c(C#N)c3)ncc2F)CC2CCCN21 (centres unmarked) | 100 to 500 nM |
